- test-summary: Example 6 pharmacokinetics assay for PKPD study (plasma, tumor, liver)
- Assay type: in vivo, BALB/c nude mice
- test-context: mouse, plasma, po; 10 mg/kg, single dose; 1 h; read-out: Concentration in Plasma (mean ± SEM)
Give concentration at 1 h for every item shown.
The answer is to be given in ng/mL; state only the numeric part.

Give its concentration at 1 h value. Item: CCN(C)S(=O)(=O)Nc1ccc(F)c(Oc2ccc3ncn(C4CC5(CCN(C6CCC(c7cc8c(cc7F)c(N7CCC(=O)NC7=O)nn8C)CC6F)CC5)C4)c(=O)c3c2)c1C#N (single isomer, unassigned) [Compound 83]
20100

Looking for the measured concentration at 1 h of CCN(C)S(=O)(=O)Nc1ccc(F)c(Oc2ccc3ncc([C@@H]4COC5(CCN(C6CCC(c7cc8c(cc7F)c(N7CCC(=O)NC7=O)nn8C)CC6)CC5)C4)nc3c2)c1C#N (single isomer, unassigned) [Compound 54] , can you help?
7740

Item Cn1nc(N2CCC(=O)NC2=O)c2cc(F)c(C3CCC(N4CCC5(CC4)CC(n4cnc6ccc(Oc7c(F)ccc(NS(=O)(=O)C8CCCC8)c7C#N)cc6c4=O)C5)CC3)cc21 (single isomer, unassigned) [Compound 93] has what recorded concentration at 1 h?
2450

###

- experimental-system: BRAF V600E (Homo sapiens, UniProt P15056+Q96SW2, V600E)
- Construct: knock-in of the HiBiT tag to the endogenous BRAF V600E locus; host or cells: A375.10 (A375 clonal line, CRISPR HiBiT knock-in at the endogenous BRAF V600E locus)
- Sequence (P15056 whole entry V600E): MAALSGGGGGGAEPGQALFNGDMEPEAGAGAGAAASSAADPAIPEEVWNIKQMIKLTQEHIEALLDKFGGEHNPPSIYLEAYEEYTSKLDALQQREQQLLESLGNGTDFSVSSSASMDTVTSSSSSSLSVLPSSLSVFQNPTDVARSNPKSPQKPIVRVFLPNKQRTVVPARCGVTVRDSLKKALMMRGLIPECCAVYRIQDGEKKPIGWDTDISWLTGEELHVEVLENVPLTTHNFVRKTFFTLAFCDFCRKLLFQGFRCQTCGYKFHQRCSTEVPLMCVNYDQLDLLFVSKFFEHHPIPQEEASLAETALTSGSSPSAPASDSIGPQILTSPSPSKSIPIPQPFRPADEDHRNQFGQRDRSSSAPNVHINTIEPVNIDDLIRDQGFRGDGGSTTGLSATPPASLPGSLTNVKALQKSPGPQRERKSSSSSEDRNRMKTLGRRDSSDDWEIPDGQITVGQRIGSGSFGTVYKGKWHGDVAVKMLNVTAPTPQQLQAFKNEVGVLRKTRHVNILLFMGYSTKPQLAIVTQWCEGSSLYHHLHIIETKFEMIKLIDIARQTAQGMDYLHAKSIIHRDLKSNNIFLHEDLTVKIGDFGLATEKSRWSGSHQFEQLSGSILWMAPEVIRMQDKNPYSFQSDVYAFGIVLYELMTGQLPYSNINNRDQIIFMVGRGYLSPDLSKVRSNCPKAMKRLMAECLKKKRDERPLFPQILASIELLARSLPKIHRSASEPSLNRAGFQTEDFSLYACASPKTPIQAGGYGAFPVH
- Sequence (Q96SW2 whole entry): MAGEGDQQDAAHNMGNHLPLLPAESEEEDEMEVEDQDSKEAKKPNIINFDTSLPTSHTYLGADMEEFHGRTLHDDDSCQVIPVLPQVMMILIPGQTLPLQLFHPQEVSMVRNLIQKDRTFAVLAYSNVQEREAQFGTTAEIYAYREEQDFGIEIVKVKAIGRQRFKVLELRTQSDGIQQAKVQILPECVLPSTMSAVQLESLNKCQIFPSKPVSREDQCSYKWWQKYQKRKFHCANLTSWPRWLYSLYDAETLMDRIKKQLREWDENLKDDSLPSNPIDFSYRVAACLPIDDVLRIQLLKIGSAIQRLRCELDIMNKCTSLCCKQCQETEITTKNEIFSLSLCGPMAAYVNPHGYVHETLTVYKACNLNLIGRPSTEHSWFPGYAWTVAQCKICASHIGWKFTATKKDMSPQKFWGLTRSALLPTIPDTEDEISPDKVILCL
- Sequence (Q16531 whole entry partner): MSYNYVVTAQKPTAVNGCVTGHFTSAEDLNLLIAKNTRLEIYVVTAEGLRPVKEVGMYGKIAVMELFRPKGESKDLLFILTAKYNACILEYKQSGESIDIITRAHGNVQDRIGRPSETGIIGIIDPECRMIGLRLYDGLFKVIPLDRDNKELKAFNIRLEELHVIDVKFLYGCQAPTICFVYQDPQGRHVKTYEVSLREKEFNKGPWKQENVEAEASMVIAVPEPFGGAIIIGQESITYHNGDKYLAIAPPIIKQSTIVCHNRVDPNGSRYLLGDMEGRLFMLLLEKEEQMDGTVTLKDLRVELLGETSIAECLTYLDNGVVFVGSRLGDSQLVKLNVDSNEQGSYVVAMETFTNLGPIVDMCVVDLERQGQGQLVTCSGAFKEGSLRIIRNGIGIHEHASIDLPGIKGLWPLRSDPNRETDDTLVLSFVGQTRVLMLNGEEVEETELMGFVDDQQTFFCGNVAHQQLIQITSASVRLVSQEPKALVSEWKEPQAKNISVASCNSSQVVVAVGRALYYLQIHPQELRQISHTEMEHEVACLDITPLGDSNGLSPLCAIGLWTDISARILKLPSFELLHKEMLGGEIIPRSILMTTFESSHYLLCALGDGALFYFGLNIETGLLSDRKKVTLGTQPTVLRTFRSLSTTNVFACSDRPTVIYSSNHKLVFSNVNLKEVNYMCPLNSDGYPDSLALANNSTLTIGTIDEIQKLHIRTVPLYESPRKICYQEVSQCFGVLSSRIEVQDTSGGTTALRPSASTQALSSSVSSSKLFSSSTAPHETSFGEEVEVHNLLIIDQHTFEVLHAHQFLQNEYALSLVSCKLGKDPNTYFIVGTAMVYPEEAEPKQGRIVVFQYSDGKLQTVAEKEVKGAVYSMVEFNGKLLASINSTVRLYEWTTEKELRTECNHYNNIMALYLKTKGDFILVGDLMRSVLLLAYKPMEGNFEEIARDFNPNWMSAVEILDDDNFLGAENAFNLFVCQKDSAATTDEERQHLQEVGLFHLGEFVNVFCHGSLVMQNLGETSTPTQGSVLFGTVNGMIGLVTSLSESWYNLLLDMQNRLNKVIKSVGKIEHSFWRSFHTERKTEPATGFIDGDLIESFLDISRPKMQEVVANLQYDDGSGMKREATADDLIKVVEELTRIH
- test-summary: BRAF V600E HiBiT Degradation Assay
- Format: cell-based
- test-context: read-out: HiBiT-Degradation A375.10 BRAF 2 hours Emax, A375.10 cells, BRAF V600E, 2 hours; residual protein remaining
Would you mind telling me the reported Emax of each entry?

Request: Emax, test system BRAF V600E (Homo sapiens, UniProt P15056+Q96SW2, V600E), entry CCN(C)S(=O)(=O)Nc1ccc(F)c(Oc2ccc3ncn([C@H]4COC5(CCC(N6CC7(CN(c8ccc(NC9CCC(=O)NC9=O)cc8F)C7)C6)CC5)C4)c(=O)c3c2)c1C#N (single isomer, unassigned) [Compound 191]
< 50%

Find the measured Emax: item CCN(C)S(=O)(=O)Nc1ccc(F)c(Oc2ccc3ncc([C@H]4COC5(CCN(C6CCC(c7cc8c(cc7F)c(N7CCC(=O)NC7=O)nn8C)CC6F)CC5)C4)nc3c2)c1C#N (single isomer, unassigned) , target or system BRAF V600E (Homo sapiens, UniProt P15056+Q96SW2, V600E).
< 50%

Form field - read-out: Emax; system: BRAF V600E (Homo sapiens, UniProt P15056+Q96SW2, V600E); submitted item: CCN(C)S(=O)(=O)Nc1ccc(F)c(Oc2ccc3ncc([C@@H]4COC5(CCN(C6CCC(c7ccc(NC8CCC(=O)NC8=O)cc7F)CC6)CC5)C4)nc3c2)c1C#N (single isomer, unassigned)
< 50%

Enter reported Emax observed with BRAF V600E (Homo sapiens, UniProt P15056+Q96SW2, V600E) for CC(C)S(=O)(=O)Nc1ccc(F)c(Oc2ccc3ncn(C4CC5(CCN(C6CC7(C6)CN(c6cc8c(cc6F)c(N6CCC(=O)NC6=O)nn8C)C7)CC5)C4)c(=O)c3c2)c1C#N (stereo not drawn)
< 50%

Form: Entry = Cn1nc(N2CCC(=O)NC2=O)c2cc(F)c(N3CC4(CC(N5CCC6(CC5)C[C@@H](n5cnc7ccc(Oc8c(F)ccc(NS(=O)(=O)N9CC%10(CCC%10)C9)c8C#N)cc7c5=O)CO6)C4)C3)cc21 | System = BRAF V600E (Homo sapiens, UniProt P15056+Q96SW2, V600E) | Emax = ____
50 to 90%

Please tell me: Emax of CCN(C)S(=O)(=O)Nc1ccc(F)c(Oc2ccc3ncn([C@H]4COC5(CCC(N6CCC(c7cc8c(cc7F)c(N7CCC(=O)NC7=O)nn8C)C(F)(F)C6)CC5)C4)c(=O)c3c2)c1C#N (single isomer, unassigned) , system BRAF V600E (Homo sapiens, UniProt P15056+Q96SW2, V600E)?
< 50%

Fill in the recorded Emax for this compound, with BRAF V600E (Homo sapiens, UniProt P15056+Q96SW2, V600E) as test system: CCN(C)S(=O)(=O)Nc1ccc(F)c(Oc2ccc3ncn([C@H]4COC5(CCN(C6CC7(C6)CN(c6cc8c(cc6F)c(N6CCC(=O)NC6=O)nn8C)C7)CC5)C4)c(=O)c3c2)c1C#N
< 50%

So what Emax did Cn1nc(N2CCC(=O)NC2=O)c2cc(F)c(C3CCC(N4CCC5(CC4)CC(n4cnc6ccc(Oc7c(F)ccc(NS(=O)(=O)C8CCCC8)c7C#N)cc6c4=O)C5)CC3)cc21 (single isomer, unassigned) get with BRAF V600E (Homo sapiens, UniProt P15056+Q96SW2, V600E)?
< 50%

Notebook: pull reported Emax for BRAF V600E (Homo sapiens, UniProt P15056+Q96SW2, V600E), entry CCN(C)S(=O)(=O)Nc1ccc(F)c(Oc2ccc3ncc([C@@H]4COC5(CCN(C6CCC(c7cc8c(cc7F)c(N7CCC(=O)NC7=O)nn8C)CC6F)CC5)C4)nc3c2)c1C#N (single isomer, unassigned)
< 50%

Value wanted: Emax (BRAF V600E (Homo sapiens, UniProt P15056+Q96SW2, V600E)) of entry Cn1nc(N2CCC(=O)NC2=O)c2cc(F)c(N3CC4(CC(N5CCC6(CC5)CC(n5cnc7ccc(Oc8c(F)ccc(NS(=O)(=O)C9CC9)c8C#N)cc7c5=O)C6)C4)C3)cc21
< 50%

Write down the reported Emax of Cn1nc(N2CCC(=O)NC2=O)c2cc(F)c(C3CCC(N4CCC5(CC4)CC(c4cnc6ccc(Oc7c(F)ccc(NS(=O)(=O)N8CC[C@@H](F)C8)c7C#N)cc6n4)C5)CC3)cc21 (stereo partly drawn) , test system: BRAF V600E (Homo sapiens, UniProt P15056+Q96SW2, V600E).
< 50%

Under BRAF V600E (Homo sapiens, UniProt P15056+Q96SW2, V600E): Emax value of Cn1nc(N2CCC(=O)NC2=O)c2cc(F)c(N3CC4(CC(N5CCC6(CC5)CC(n5cnc7ccc(Oc8c(F)ccc(NS(=O)(=O)N9CC[C@@H](F)C9)c8C#N)cc7c5=O)C6)C4)C3)cc21 ?
< 50%

Please state recorded Emax (tested on BRAF V600E (Homo sapiens, UniProt P15056+Q96SW2, V600E)) of CCN(C)S(=O)(=O)Nc1ccc(F)c(Oc2ccc3ncn(C4CC5(C4)CN(C4CCC(c6cc7c(cc6F)c(N6CCC(=O)NC6=O)nn7C)CC4)C5)c(=O)c3c2)c1C#N (single isomer, unassigned)
< 50%

Missing value: Emax, BRAF V600E (Homo sapiens, UniProt P15056+Q96SW2, V600E), entry CCN(C)S(=O)(=O)Nc1ccc(F)c(Oc2ccc3ncc(OCC4CCN(C5CCC(c6cc7c(cc6F)c(N6CCC(=O)NC6=O)nn7C)CC5)CC4)nc3c2)c1C#N (single isomer, unassigned) . Fill in?
50 to 90%

Form field: Emax recorded for CCN(C)S(=O)(=O)Nc1ccc(F)c(Oc2ccc3ncc([C@H]4COC5(CCN(C6CCC(c7cc8c(cc7F)c(N7CCC(=O)NC7=O)nn8C)CC6)CC5)C4)nc3c2)c1C#N (single isomer, unassigned) with BRAF V600E (Homo sapiens, UniProt P15056+Q96SW2, V600E) (enter value)
< 50%

Item: CCN(C)S(=O)(=O)Nc1ccc(F)c(Oc2ccc3ncc([C@@H]4COC5(CCN(C6CCC(c7cc8c(cc7F)c(N7CCC(=O)NC7=O)nn8C)CC6)CC5)C4)nc3c2)c1C#N (single isomer, unassigned) Test system: BRAF V600E (Homo sapiens, UniProt P15056+Q96SW2, V600E) Read-out: Emax Value: ?
< 50%

I'm curious: which Emax was measured for CCN(C)S(=O)(=O)Nc1ccc(F)c(Oc2ccc3ncn(C4CC5(CCN(C6CCN(c7cc8c(cc7F)c(N7CCC(=O)NC7=O)nn8C)CC6)CC5)C4)c(=O)c3c2)c1C#N tested on BRAF V600E (Homo sapiens, UniProt P15056+Q96SW2, V600E)?
< 50%

Notebook: pull reported Emax for BRAF V600E (Homo sapiens, UniProt P15056+Q96SW2, V600E), entry CCN(C)S(=O)(=O)Nc1ccc(F)c(Oc2ccc3ncn(C4CC5(CCN(C6CC7(C6)CN(c6cc8c(cc6F)c(N6CCC(=O)NC6=O)nn8C)C7)CC5)C4)c(=O)c3c2)c1C#N (stereo not drawn)
< 50%

###

- test-summary: Pharmacokinetics after 21 days dosing in the efficacy study (plasma, tumor and brain concentrations; plasma AUC at steady state), Example 14
- Assay type: in vivo, female BALB/c nude mice
- test-context: mouse, plasma, po; 3 mg/kg p.o. BID x 21 days; 10 h; mean ± SEM
metric-name: concentration at 10 h
Be sure to follow the number with its unit.

# query: concentration at 10 h of entry CCN(C)S(=O)(=O)Nc1ccc(F)c(Oc2ccc3ncn([C@H]4COC5(CCN(C6CC7(C6)CN(c6cc8c(cc6F)c(N6CCC(=O)NC6=O)nn8C)C7)CC5)C4)c(=O)c3c2)c1C#N
2.47 µg/mL
